Every entry's value here was drawn from patent EP1247803A2.

The following molecules are shown together with reported Biochem EGFR %Inhibition values.
- assay target: EGFR (Homo sapiens, UniProt P00533)
- Construct: Add 7 ug A431 cell lysate per well (EGFR source); endogenous in cells; host or cells: A431
- Sequence (P00533 25-1210): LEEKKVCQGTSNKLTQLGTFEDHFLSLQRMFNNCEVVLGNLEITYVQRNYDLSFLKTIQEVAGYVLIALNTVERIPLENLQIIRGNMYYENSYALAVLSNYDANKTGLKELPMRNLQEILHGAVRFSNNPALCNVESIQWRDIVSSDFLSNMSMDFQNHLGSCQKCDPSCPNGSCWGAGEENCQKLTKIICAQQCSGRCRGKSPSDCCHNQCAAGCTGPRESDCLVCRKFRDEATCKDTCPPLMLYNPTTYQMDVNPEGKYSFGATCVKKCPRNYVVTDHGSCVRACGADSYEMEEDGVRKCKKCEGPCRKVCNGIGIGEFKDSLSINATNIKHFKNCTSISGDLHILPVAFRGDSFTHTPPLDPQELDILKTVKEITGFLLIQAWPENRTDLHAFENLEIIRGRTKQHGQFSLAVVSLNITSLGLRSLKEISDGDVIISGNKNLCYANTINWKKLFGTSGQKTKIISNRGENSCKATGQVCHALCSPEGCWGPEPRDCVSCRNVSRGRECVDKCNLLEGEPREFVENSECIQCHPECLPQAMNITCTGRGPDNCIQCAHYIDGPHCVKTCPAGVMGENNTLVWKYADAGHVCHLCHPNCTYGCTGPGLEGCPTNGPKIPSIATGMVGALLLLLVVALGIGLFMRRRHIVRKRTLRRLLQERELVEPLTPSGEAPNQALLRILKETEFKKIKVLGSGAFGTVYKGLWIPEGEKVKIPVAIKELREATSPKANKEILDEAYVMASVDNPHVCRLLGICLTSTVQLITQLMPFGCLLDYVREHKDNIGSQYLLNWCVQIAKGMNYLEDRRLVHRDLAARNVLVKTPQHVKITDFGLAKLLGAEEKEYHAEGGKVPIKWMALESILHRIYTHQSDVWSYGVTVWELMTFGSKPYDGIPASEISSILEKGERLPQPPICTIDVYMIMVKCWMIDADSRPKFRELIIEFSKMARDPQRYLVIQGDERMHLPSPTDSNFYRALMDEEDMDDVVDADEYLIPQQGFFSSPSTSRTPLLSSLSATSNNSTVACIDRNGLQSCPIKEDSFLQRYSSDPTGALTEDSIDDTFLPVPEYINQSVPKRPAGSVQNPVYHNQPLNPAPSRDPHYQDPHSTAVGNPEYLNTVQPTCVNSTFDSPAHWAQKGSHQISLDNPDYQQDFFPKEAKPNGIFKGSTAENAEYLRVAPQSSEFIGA
- protocol: EGFR ELISA assay (in vitro kinase activity, EGFR captured from A431 cell lysate)
- Assay type: biochemical
- Parameters: concentration or dose not given beside the values
All answers are understood in %, so give the number only.

See these solved cases before continuing.
In [3]: df
Out[3]:
                               entry_smiles                         assay_target         reported_endpoint   val
0  Cc1cc(C=C2C(=O)Nc3ccc(I)cc32)cc(C(C)(C)C)c1O  EGFR (Homo sapiens, UniProt P00533)  Biochem EGFR %Inhibition  71.1
1  CC(C)(C)c1cc(C=C2C(=O)Nc3ccc(CCCl)cc32)cc(C(C)(C)C)c1O  EGFR (Homo sapiens, UniProt P00533)  Biochem EGFR %Inhibition   0.4
2  COc1cc(C=C2C(=O)Nc3c(Br)cc(Br)cc32)cc(OC)c1OC  EGFR (Homo sapiens, UniProt P00533)  Biochem EGFR %Inhibition  37.2

Request: Identify measured Biochem EGFR %Inhibition corresponding to O=C1Nc2ccccc2C1=C1C(=O)Nc2ccc(S(=O)(=O)N3CCOCC3)cc21
Result: -22.8

Request: Assign Biochem EGFR %Inhibition to the following record: CNS(=O)(=O)c1ccc2c(c1)C(=Cc1ccc(Br)o1)C(=O)N2
Result: -8.1

Request: Provide only the value of recorded Biochem EGFR %Inhibition for O=C1Nc2ccc(CCCl)cc2C1=Cc1cc2ccccc2nc1Cl
Result: 9.5

Request: # return recorded Biochem EGFR %Inhibition for entry O=C1Nc2c(Br)cc(Br)cc2C1=Cc1ccc([N+](=O)[O-])c(O)c1
Result: 15.4

Request: Please list Biochem EGFR %Inhibition recorded for the molecule CC(C)(C)c1cc(C=C2C(=O)Nc3ccc(CCCl)cc32)cc([N+](=O)[O-])c1O
Result: 27.3

Request: Hello, please tell me recorded Biochem EGFR %Inhibition for this one: O=C1Nc2ccc(CCCl)cc2C1=Cc1coc2ccccc2c1=O
Result: 5.4

----------
- assay target: FLK-1 receptor (Mus musculus)
- Construct: expressed in transfected cells; host or cells: NIH3T3 C7#3
- Sequence (P35918 20-1345): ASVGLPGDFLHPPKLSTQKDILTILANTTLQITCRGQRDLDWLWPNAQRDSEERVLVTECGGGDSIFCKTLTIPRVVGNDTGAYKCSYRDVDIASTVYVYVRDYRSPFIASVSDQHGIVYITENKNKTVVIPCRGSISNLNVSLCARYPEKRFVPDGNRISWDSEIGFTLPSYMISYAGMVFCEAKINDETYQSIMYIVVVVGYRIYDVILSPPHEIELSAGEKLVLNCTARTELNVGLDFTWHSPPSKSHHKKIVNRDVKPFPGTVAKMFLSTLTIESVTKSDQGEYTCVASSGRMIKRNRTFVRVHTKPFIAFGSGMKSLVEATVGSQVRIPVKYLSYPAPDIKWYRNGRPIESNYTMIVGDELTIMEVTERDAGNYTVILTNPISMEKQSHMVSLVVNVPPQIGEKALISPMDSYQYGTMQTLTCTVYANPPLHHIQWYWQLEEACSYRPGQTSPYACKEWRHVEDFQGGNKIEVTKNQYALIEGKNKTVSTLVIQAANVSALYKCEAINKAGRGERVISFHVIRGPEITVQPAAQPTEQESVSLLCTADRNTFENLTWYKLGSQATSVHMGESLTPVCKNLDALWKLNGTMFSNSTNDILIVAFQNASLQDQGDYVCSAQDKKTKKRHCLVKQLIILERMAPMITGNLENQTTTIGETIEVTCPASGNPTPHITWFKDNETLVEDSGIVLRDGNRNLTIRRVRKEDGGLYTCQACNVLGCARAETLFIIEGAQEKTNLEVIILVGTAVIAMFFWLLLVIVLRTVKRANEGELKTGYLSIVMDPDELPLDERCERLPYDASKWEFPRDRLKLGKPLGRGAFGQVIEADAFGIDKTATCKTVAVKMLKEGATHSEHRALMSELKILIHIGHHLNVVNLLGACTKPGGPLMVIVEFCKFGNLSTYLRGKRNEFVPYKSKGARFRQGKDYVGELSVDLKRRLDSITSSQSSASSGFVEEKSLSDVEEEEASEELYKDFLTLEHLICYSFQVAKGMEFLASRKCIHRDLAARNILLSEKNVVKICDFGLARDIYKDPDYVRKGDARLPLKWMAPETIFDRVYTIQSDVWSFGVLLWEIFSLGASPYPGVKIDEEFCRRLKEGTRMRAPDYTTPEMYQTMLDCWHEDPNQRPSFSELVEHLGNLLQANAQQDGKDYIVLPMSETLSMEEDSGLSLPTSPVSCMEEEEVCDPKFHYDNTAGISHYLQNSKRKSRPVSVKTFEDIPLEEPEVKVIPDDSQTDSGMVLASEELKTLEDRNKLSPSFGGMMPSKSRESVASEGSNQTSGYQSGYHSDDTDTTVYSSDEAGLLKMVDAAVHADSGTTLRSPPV
- protocol: FLK-1 ELISA (kinase activity of the FLK-1 receptor in FLK-1/NIH3T3 cells, VEGF stimulated)
- Assay type: cell-based
reported endpoint: Fik Kinase %Inhibition
I'd appreciate it if you included the unit after the number.

                                   compound                   assay_target     val
0  CCOC(=O)c1c(C)[nH]c(C=C2C(=O)Nc3ccc(S(=O)(=O)NC)cc32)c1C [10718/D02]  FLK-1 receptor (Mus musculus)   13.3%
1  O=C1Nc2c(Br)cc(Br)cc2C1=CC(c1cccs1)C(F)(F)F (stereo not drawn) [10732/A02]  FLK-1 receptor (Mus musculus)  -12.5%
2  O=C1Nc2ccc(I)cc2C1=Cc1cc2ccccc2o1 [10724/B07]  FLK-1 receptor (Mus musculus)   -1.8%

Request: Dear colleague, please send me the reported Fik Kinase %Inhibition for O=C1Nc2ccc(CCCl)cc2C1=Cc1ccc(Br)cc1 [10717/G08] when you can.
Result: 1.9%

Request: Please report Fik Kinase %Inhibition for the following compound: O=CN1CCN(c2ccc(C=C3C(=O)Nc4c(Br)cc(Br)cc43)cc2)CC1 [10725/A07]
Result: -12.3%

Request: Check the records and state Fik Kinase %Inhibition for CC(C)(C)c1cc(C=C2C(=O)Nc3ccc(S(=O)(=O)N4CCOCC4)cc32)cc(C(C)(C)C)c1O [10721/F11]
Result: 29.7%

Request: State its Fik Kinase %Inhibition for this compound: Cc1ccc2occ(C=C3C(=O)Nc4ccc(CCCl)cc43)c(=O)c2c1 [10731/G06]
Result: 10.8%

Request: Identify Fik Kinase %Inhibition associated with the compound O=C1Nc2ccc(CCCl)cc2C1=Cc1ccc(Br)s1 [10734/G11]
Result: 8.7%

----------
- Test system: MET
- protocol: MET biochemical kinase assay
- Design: species or system human; concentration or dose not given beside the values
- From the text: A met biochemical kinase assay may be performed for met generally as described above for other kinases by substituting that or the other kinases. […] Incorporation of phosphate into the captured receptors is detected with an anti-phosphotyrosine antibody conjugate with horse radish peroxidase using TMB as a substrate for colorimetric detection.
Catalogue of Met Kinase % Inhibition values
Answer as a quantity: numeral, then unit.

The examples below pair each entry with its known result.
In [3]: df
Out[3]:
                                   compound    val
0  Cc1c(O)ccc(C=C2C(=O)Nc3ccc(I)cc32)c1O [10718/B09]  52.9%
1  O=C1Nc2ccc(I)cc2C1=Cc1coc2ccccc2c1=O [10727/B07]  83.5%
2  Cc1ccc(C=C2C(=O)Nc3ccc(S(=O)(=O)N4CCOCC4)cc32)o1 [10725/F04]  38.1%

Request: Supply measured Met Kinase % Inhibition of CCc1ccc(C=C2C(=O)Nc3ccc(S(=O)(=O)Nc4ccc(C(F)(F)F)cc4)cc32)o1 [10724/E10] in your reply.
Result: 84.0%

Request: Note down Met Kinase % Inhibition recorded for C=C(C)C1CC=C(C=C2C(=O)Nc3ccc(S(=O)(=O)Nc4ccc(C(F)(F)F)cc4)cc32)CC1 (centres unmarked) [10731/E04]
Result: 55.6%

Request: Output Met Kinase % Inhibition of CCc1cc(CC)c(C=C2C(=O)Nc3ccc(S(=O)(=O)Nc4ccc(C(F)(F)F)cc4)cc32)[nH]1 [10727/E03]
Result: 28.8%

----------
- assay target: FLK-1 receptor (Mus musculus)
- Construct: expressed in transfected cells; host or cells: NIH3T3 C7#3
- protocol: FLK-1 ELISA (kinase activity of the FLK-1 receptor in FLK-1/NIH3T3 cells, VEGF stimulated)
- Type: cell-based
reported endpoint: Fik Kinase %Inhibition (%)
Express your answer in %, writing the number without its unit.

Request: For O=C1Nc2ccc(S(=O)(=O)Nc3ccc(C(F)(F)F)cc3)cc2C1=Cc1c(F)cc(F)cc1F [10720/E02] , write its Fik Kinase %Inhibition.
Result: 5.7

Request: Name the recorded Fik Kinase %Inhibition of the item CCn1c2ccccc2c2cc(C=C3C(=O)Nc4ccc(S(=O)(=O)Nc5ccc(C(F)(F)F)cc5)cc43)ccc21 [10731/E02] in your answer.
Result: 11.2

Request: Let me know recorded Fik Kinase %Inhibition for O=C1Nc2ccc(S(=O)(=O)N3CCOCC3)cc2C1=Cc1cc(O)c2c(c1O)CCCC2 [10726/F07] , thanks.
Result: 9.6

Request: Answer with the recorded Fik Kinase %Inhibition of C=C(C)C1CC=C(C=C2C(=O)Nc3c(Br)cc(Br)cc32)CC1 (stereo not shown) [10731/A04] only.
Result: 5.0

----------
- assay target: EGFR (Homo sapiens, UniProt P00533)
- Construct: Add 7 ug A431 cell lysate per well (EGFR source); endogenous in cells; host or cells: A431
- protocol: EGFR ELISA assay (in vitro kinase activity, EGFR captured from A431 cell lysate)
- Assay type: biochemical
- Design: concentration or dose not given beside the values
Attribute: Biochem EGFR %Inhibition
Quick note: give the figure in %, leave out the unit.

>>> df
                               entry_smiles    val
0  CC(C)(C)c1cc(C=C2C(=O)Nc3ccc(S(=O)(=O)Nc4ccc(C(F)(F)F)cc4)cc32)cc(Br)c1O   19.9
1      COc1cccc(C=C2C(=O)Nc3ccc(I)cc32)c1OC    6.9
2  COc1cc(N(C)C)ccc1C=C1C(=O)Nc2ccc(Br)c(C)c21   16.1
3  Cc1cc(O)cc(O)c1C=C1C(=O)Nc2c(Br)cc(Br)cc21  -23.2

Request: Return Biochem EGFR %Inhibition (reported value) for this molecule: Cc1c(Br)ccc2c1C(=Cc1cc(O)c(O)c(Br)c1)C(=O)N2
Result: 23.5

Request: Output Biochem EGFR %Inhibition of COc1cc(C=C2C(=O)Nc3ccc(S(=O)(=O)N4CCOCC4)cc32)cc(OC)c1OC
Result: -4.8

Request: Answer with reported Biochem EGFR %Inhibition of CCOc1cc(C=C2C(=O)Nc3ccc(I)cc32)ccc1O
Result: 37.6

Request: Using known records, supply Biochem EGFR %Inhibition for Cn1cc(Cl)c(C=C2C(=O)Nc3c(Br)cc(Br)cc32)n1
Result: 25.5

Request: Using the record for Cc1c(O)ccc(C=C2C(=O)Nc3ccc(CCCl)cc32)c1O , state its measured Biochem EGFR %Inhibition.
Result: -15.4
